OD450: recorded values
- target-or-system: BSA (UniProt P02769)
- Sequence (P02769 25-607 limits assumed): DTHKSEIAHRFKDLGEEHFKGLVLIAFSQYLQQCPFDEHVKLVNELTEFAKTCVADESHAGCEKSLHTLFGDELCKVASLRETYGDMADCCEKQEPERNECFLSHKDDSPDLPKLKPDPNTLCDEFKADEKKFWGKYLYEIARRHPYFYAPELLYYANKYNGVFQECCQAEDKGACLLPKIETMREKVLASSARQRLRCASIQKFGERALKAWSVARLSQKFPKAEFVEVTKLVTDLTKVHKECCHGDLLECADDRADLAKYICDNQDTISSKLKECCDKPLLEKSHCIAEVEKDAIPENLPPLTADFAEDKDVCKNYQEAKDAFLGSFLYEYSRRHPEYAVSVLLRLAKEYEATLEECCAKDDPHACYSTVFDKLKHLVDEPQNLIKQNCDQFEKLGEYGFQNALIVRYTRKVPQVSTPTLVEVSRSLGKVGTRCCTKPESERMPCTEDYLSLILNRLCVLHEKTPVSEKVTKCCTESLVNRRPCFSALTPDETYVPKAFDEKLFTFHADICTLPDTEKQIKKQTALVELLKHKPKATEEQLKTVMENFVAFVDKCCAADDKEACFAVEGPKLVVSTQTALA
- test-description: scFv ELISA
Answer format: number, then unit.

Ask | What value of OD450 has been reported for the following binder? PcOxP_DB02_B12 (scFv, V domains shown, scFv in periplasmic extract) VH: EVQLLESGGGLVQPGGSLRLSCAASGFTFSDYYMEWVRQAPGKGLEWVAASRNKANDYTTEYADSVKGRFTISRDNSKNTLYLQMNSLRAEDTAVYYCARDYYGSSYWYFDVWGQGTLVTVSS VL: DIQMTQSPSSLSASVGDRVTITCTASESLYSSKHKVHYLAWYQQKPGKAPKLLIYGQSNRYIGVPSRFSGSGSGTDFTLTISSLQPEDFATYYCAQFYSYPLTFGGGTKVEIK
Reply | 0.1 OD450

Ask | What value of OD450 has been reported for the following binder? PcOxP_DB02_E01 (scFv, V domains shown, scFv in periplasmic extract) VH: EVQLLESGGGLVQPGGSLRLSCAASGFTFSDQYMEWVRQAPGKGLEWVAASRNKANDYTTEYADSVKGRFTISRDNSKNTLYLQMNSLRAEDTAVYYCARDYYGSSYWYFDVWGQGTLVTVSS VL: DIQMTQSPSSLSASVGDRVTITCTASESLYSSKHKVHYLAWYQQKPGKAPKLLIYGASGRYIGVPSRFSGSGSGTDFTLTISSLQPEDFATYYCAQFYSYPLTFGGGTKVEIK
Reply | 0.11 OD450

Ask | What value of OD450 has been reported for the following binder? PcOxP_DB04_H08 (scFv, V domains shown, scFv in periplasmic extract) VH: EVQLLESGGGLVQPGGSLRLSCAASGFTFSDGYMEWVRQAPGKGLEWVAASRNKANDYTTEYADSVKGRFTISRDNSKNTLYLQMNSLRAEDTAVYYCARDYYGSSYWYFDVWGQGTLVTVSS VL: DIQMTQSPSSLSASVGDRVTITCTASESLYSSKHKVHYLAWYQQKPGKAPKLLIYGASNLYSGVPSRFSGSGSGTDFTLTISSLQPEDFATYYCAQFYSYPLTFGGGTKVEIK
Reply | 0.09 OD450
